- SYSTEM: T1, Hfq-CTR peptide (Escherichia coli, UniProt P0A6X3)
- T1 chain: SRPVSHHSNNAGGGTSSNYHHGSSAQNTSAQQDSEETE
- EXPERIMENTAL DETAILS: EMSA; quadruplex annealed in water without salt; EMSA: quadruplex prepared in water (95 C 5 min, slow cooling), 20 min at room temperature; native 4-20% polyacrylamide gel in TAE pH 8.0 (40 mM Tris-acetate, 1)
- ASSAY CONDITIONS: parallel G-quadruplex
MEASUREMENT LABEL: Kd (nM)
The figure you give is taken to be in nM; do not add the unit.

Look up Kd: GGGTGGGTGGGTGGGT (structured_DNA) [d(G3T)4]
1060
